biological target: UniProt P25024
Sequence (P25024 whole entry): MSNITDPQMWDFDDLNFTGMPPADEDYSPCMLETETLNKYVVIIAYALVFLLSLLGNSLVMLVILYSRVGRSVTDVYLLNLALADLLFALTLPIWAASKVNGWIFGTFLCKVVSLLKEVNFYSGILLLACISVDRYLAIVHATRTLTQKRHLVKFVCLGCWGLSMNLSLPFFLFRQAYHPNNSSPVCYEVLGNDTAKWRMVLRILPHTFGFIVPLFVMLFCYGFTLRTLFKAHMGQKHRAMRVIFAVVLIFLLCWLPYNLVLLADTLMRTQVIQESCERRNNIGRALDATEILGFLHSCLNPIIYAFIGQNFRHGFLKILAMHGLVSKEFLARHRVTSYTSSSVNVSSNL
quantity: IC50

CCCc1nn(C)c2c(=O)[nH]c(-c3cc(S(=O)(=O)N4CCN(C)CC4)ccc3OCC)nc12 = Not Active
CC(=O)O[C@]1(C(C)=O)CC[C@H]2[C@@H]3C=C(C)C4=CC(=O)CC[C@]4(C)[C@H]3CC[C@@]21C [MEGESTROL ACETATE] = Not Active
CC(C)OC(=O)C(C)(C)Oc1ccc(C(=O)c2ccc(Cl)cc2)cc1 [FENOFIBRATE] = Not Active
Cc1cccc(Nc2ccccc2C(=O)O)c1C = Not Active

---

target: Cytochrome P450 2D6 (Homo sapiens, UniProt P10635); conditions: bti-tn-5b1-4; note: in other assays of this panel Not Active means under 50% inhibition at 10 µM
Sequence (P10635 whole entry): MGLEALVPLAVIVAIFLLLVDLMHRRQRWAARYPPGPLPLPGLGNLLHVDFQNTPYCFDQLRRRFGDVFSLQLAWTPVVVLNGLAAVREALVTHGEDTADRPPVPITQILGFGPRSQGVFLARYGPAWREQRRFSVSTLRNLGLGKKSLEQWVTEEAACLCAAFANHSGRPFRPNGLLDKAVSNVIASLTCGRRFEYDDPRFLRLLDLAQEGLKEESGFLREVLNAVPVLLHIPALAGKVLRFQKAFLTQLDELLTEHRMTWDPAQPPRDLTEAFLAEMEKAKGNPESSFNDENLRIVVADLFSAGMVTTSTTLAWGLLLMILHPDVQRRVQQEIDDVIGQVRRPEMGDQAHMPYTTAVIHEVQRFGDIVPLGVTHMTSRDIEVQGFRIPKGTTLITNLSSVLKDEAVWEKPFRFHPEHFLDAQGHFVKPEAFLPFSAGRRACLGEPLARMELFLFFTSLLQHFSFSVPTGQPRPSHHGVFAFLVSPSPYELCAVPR
quantity: IC50

Recorded IC50, per entry:
CC(=O)OCC(CCn1cnc2cnc(N)nc21)COC(C)=O [FAMCICLOVIR] = Not Active
CC(=O)Nc1nnc(S(N)(=O)=O)s1 [ACETAZOLAMIDE] = Not Active
CCOC(=O)[C@H](CCc1ccccc1)N[C@@H](C)C(=O)N1Cc2ccccc2C[C@H]1C(=O)O = Not Active
CS(=O)(=O)OCCCCOS(C)(=O)=O [BUSULFAN] = Not Active

Continue with the compound presented below.
The value of IC50 measured for the compound COc1cc(CNC(=O)CCCC/C=C/C(C)C)ccc1O [CAPSAICIN] turned out to be Not Active

---

biological target: Tyrosine-protein kinase Fyn (Homo sapiens, UniProt P06241); test: biochemical; assay type: cell-based, Insect cells; conditions: insect cells;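 note: enzymatic inhibition of Fyn kinase activity measured with Poly(Glu:Tyr) as the phosphorylation substrate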; note: in other assays of this panel Not Active means under 50% inhibition at 10 µM
Sequence (P06241 whole entry): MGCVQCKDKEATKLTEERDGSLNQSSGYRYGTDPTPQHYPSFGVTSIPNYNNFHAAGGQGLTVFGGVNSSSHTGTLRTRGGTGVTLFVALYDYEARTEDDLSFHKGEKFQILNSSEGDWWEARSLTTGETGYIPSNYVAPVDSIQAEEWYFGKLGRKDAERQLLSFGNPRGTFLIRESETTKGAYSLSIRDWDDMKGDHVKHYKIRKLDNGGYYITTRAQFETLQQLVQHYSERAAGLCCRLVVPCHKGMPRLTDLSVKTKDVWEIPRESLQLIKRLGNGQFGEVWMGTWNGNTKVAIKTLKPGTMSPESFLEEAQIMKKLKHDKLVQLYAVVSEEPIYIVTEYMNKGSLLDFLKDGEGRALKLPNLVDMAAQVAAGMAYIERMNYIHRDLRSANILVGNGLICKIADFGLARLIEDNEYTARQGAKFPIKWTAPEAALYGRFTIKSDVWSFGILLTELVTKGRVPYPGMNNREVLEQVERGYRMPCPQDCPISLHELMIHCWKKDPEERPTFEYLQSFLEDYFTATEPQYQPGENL
quantity: IC50

C[C@]12C/C(=C/O)C(=O)C[C@@H]1CC[C@@H]1[C@@H]2CC[C@@]2(C)[C@H]1CC[C@]2(C)O = Not Active
COc1cc(CNC(=O)CCCC/C=C/C(C)C)ccc1O = Not Active
Cc1c(N(C)CS(=O)(=O)[O-])c(=O)n(-c2ccccc2)n1C.[Na+] [DIPYRONE SODIUM] = Not Active
COc1ccc2cc(CCC(C)=O)ccc2c1 = Not Active
CN(C(=O)CCCOc1ccc2[nH]c(=O)ccc2c1)C1CCCCC1 [CILOSTAMIDE] = Not Active

The value of IC50 measured for the molecule CO[C@H]1C[C@@H]2CC[C@@H](C)[C@@](O)(O2)C(=O)C(=O)N2CCCC[C@H]2C(=O)O[C@H]([C@H](C)C[C@@H]2CC[C@@H](O)[C@H](OC)C2)CC(=O)[C@H](C)/C=C(\C)[C@@H](O)[C@@H](OC)C(=O)[C@H](C)C[C@H](C)/C=C/C=C/C=C/1C turned out to be Not Active

The value of IC50 measured for the molecule O=c1[nH]c2ccccc2n1CCCN1CCC(n2c(=O)[nH]c3cc(Cl)ccc32)CC1 turned out to be Not Active

---

test: DRUGMATRIX: Calcium Channel Type L, Dihydropyridine radioligand binding (ligand: [3H] Nitrendipine); type: cell membranes, Rattus norvegicus, Wistar, Cerebral cortex, Membrane; conditions: Not Active = under 50% inhibition at 10 µM
quantity: IC50

C[C@H](C(=O)O)c1cccc(C(=O)c2ccccc2)c1 [DEXKETOPROFEN] = Not Active
OCCO [ETHYLENE GLYCOL] = Not Active
CC(CCc1ccc(O)cc1)NCCc1ccc(O)c(O)c1 (configuration not stated) [DOBUTAMINE] = Not Active
O=C(c1ccccc1Cl)N1CCC(Cc2ccccc2)CC1 = Not Active
CN1C[C@H](C(=O)N[C@]2(C)O[C@@]3(O)[C@@H]4CCCN4C(=O)[C@H](Cc4ccccc4)N3C2=O)C[C@@H]2c3cccc4[nH]cc(c34)C[C@H]21 [DIHYDROERGOTAMINE] = Not Active
COc1ccccc1OCC(O)CO (configuration not stated) [GUAIFENESIN] = Not Active
CC[C@]1(O)CC[C@H]2[C@@H]3CCC4=CCCC[C@@H]4[C@H]3CC[C@@]21C = Not Active
CC(C)C[C@H]1C(=O)N2CCC[C@H]2[C@]2(O)O[C@](NC(=O)[C@@H]3C=C4c5cccc6[nH]c(Br)c(c56)C[C@H]4N(C)C3)(C(C)C)C(=O)N12 [BROMOCRIPTINE] = Not Active
COc1cc(CNC(=O)CCCC/C=C/C(C)C)ccc1O [CAPSAICIN] = Not Active
CC[C@H]1OC(=O)[C@H](C)[C@@H](O[C@H]2C[C@@](C)(OC)[C@@H](O)[C@H](C)O2)[C@H](C)[C@@H](O[C@@H]2O[C@H](C)C[C@H](N(C)C)[C@H]2O)[C@](C)(OC)C[C@@H](C)C(=O)[C@H](C)[C@@H](O)[C@]1(C)O [CLARITHROMYCIN] = Not Active

The value of IC50 measured for the compound O=C(O)C(Cl)(Cl)Cl [TRICHLOROACETIC ACID] turned out to be Not Active

The value of IC50 measured for the compound COc1ccc(Cc2nccc3cc(OC)c(OC)cc23)cc1OC [PAPAVERINE] turned out to be Not Active

The value of IC50 measured for the compound CC(C)(Oc1ccc(C2CC2(Cl)Cl)cc1)C(=O)O (configuration not stated) [CIPROFIBRATE] turned out to be Not Active

The value of IC50 measured for the compound N=C(N)N/N=C/c1c(Cl)cccc1Cl [GUANABENZ] turned out to be Not Active

The value of IC50 measured for the compound CCn1cc(C(=O)O)c(=O)c2cc(F)c(N3CCNCC3)nc21 [ENOXACIN] turned out to be Not Active

The value of IC50 measured for the compound CN[C@@H]1[C@H](O)[C@H](NC)[C@H]2O[C@@]3(O)C(=O)C[C@@H](C)O[C@H]3O[C@@H]2[C@H]1O [SPECTINOMYCIN] turned out to be Not Active

The value of IC50 measured for the compound C[C@]12CC[C@H]3[C@@H](CCC4=CC(=O)CC[C@@]43C)[C@@H]1CC[C@@H]2O [TESTOSTERONE] turned out to be Not Active
